# TARGET OR SYSTEM: glycoprotein hormone common alpha-subunit (UniProt P01215 P01215:25-116)
# Sequence (P01215 25-116, one chain of several): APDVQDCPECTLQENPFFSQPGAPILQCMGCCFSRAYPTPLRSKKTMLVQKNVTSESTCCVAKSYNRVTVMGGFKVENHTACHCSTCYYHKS
# PROTOCOL: filter
# MEASUREMENT CONDITIONS: tags: UCB-bioproducts; label: 32P
pKd: −log10 of the molar value.

| BINDER | pKd |
| --- | --- |
| H-42 (ssRNA, 2'-NH2 all pyrimidines) RNA: GGGAGGACGAUGCGGACAAGGGCCUGAGUGUGGAGGGCACGUGGAGGGGACUGGCCAGACGACUCGCCCGA | ~5.85 |
